System: Clostridium diaphorase
Assay: Fluorescent NADH detection assay, Clostridium diaphorase
Type: biochemical
Conditions: 120 min; 10 uM NADH
// reported Fluorescence time course, Clostridium for each item listed
VALUE KIND: Fluorescence time course, Clostridium

INSERT INTO results (molecule, recorded_result) VALUES
  ('CC1=CC(=O)C(C)=C(C(C)(C)CC(=O)N(C)CCN(C)C(=O)Oc2ccc3c(c2)Oc2cc(OC(=O)N(C)CCN(C)C(=O)CC(C)(C)C4=C(C)C(=O)C=C(C)C4=O)ccc2C32OC(=O)c3ccccc32)C1=O', '3821 FLUs'),
  ('CC1=C(C)C(=O)C(C(C)(C)CC(=O)N(C)CCN(C)C(=O)Oc2ccc3c(c2)Oc2cc(OC(=O)N(C)CCN(C)C(=O)CC(C)(C)C4=C(C)C(=O)C(C)=C(C)C4=O)ccc2C32OC(=O)c3ccccc32)=C(C)C1=O', '2570 FLUs'),
  ('CC1=C(C)C(=O)C(C(C)(C)CC(=O)N(C)CCN(C)C(=O)Oc2ccc3c(c2)Oc2cc(O)ccc2C32OC(=O)c3ccccc32)=C(C)C1=O (stereo not shown)', '43150 FLUs'),
  ('CC1=CC(=O)C(C)=C(C(C)(C)CC(=O)N(C)CCN(C)C(=O)Oc2ccc3c(c2)Oc2cc(O)ccc2C32OC(=O)c3ccccc32)C1=O (stereo not shown)', '124182 FLUs');

From: patent US9951372B2
